This listing pairs compounds with measured normalized growth.
Experiment: chemical genetic growth profiling, strain panel (AID 1159580);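 also: tested at 20 µM; growth read once vehicle control cultures reached saturation at 30 °C; 1 = growth at the plate median or of vehicle wells; lower values mean less growth of the strain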
Conditions: S. cerevisiae deletion strains, growth OD, locus YMR263W, strain SAP30, active compounds read low
In all, about 5,500 compounds went through this assay and about 2,000 (36%) were called active. Not shown: some 18% with an inconclusive outcome. The list shows a part of the results.

{"columns": ["compound", "normalized growth"],
 "data": [
  ["COC(=O)COc1ccc(Cl)cc1Cl", 1],
  ["CC(C(=O)O)c1ccc2c(c1)[nH]c1ccc(Cl)cc12 (stereo not given)", 1.02],
  ["O=C(O)COc1cc(Cl)c(Cl)cc1Cl", 1.01],
  ["CC(=O)O[C@]1(C(C)=O)CCC2C3C[C@H](C)C4=CC(=O)CC[C@]4(C)C3CC[C@@]21C (stereo not given in full)", 0.989],
  ["C=CC1=C(C(=O)O)N2C(=O)[C@@H](NC(=O)/C(=N/O)c3csc(N)n3)[C@H]2SC1", 1.04]
]}

All values here come from PubChem BioAssay AID1159580.
